assay: GHB toxicokinetic study, i.v. bolus, plasma and urine up to 8 h, noncompartmental analysis; assay type: in vivo, Sprague Dawley rats; settings: male, Sprague-Dawley, rat, plasma, iv, 1500 mg/kg, 1500 mg/kg GHB iv; CST testosterone rats; read-out: CL (total clearance)
measurementName: clearance

// lookup clearance for O=C(O)CCCO [GHB, Γ-hydroxybutyric acid] 3.2 mL/min/kg
